Tested on: Mycobacterium tuberculosis
Experiment: Antimycobacterial activity against Mycobacterium tuberculosis H37Rv ATCC 27294 assessed as inhibition of bacterial growth incubated for 18 to 24 hrs by broth dilution method
Assay type: functional
RESULT TYPE: MIC (µg/mL)

> print(dat)
                               query.smiles  unit.annotation  relation  recorded.value
1  COc1ccc(-c2ccn(-c3ccc(NC(=O)Nc4ccc(F)cc4F)cc3)n2)cc1OC            µg/mL         =               1
2  COc1ccc(NC(=S)Nc2ccc(-n3ccc(-c4ccc(OC)c(OC)c4)n3)cc2)c(OC)c1            µg/mL         =              32
3  COc1ccc(-c2cn(-c3ccc(NC(=O)Nc4ccc(Cl)c(Cl)c4)cc3)nn2)cc1OC            µg/mL         >              64
4  COc1ccc(-c2ccn(-c3ccc(NC(=S)NC4CCCCC4)cc3)n2)cc1OC            µg/mL         =              16
5  Cc1ccc(-c2ccn(-c3ccc(NC(=O)NCc4ccccc4)cc3)n2)cc1            µg/mL         >              64
6  COc1ccc(-c2ccn(-c3ccc(NC(=S)Nc4ccc(C#N)cc4)cc3)n2)cc1OC            µg/mL         =              32
7  COc1ccc(-c2ccn(-c3ccc(NC(=O)Nc4ccccc4)cc3)n2)cc1OC            µg/mL         =               8
8  COc1ccc(-c2ccn(-c3ccc(NC(=S)Nc4ccc([N+](=O)[O-])cc4)cc3)n2)cc1OC            µg/mL         =              16
9  O=C(NCc1ccccc1)Nc1ccc(-n2ccc(-c3ccccc3)n2)cc1            µg/mL         >              64

* * *

half-life at 1 µM listing for selected compounds.
Test: Metabolic stability in human liver microsome assessed as half life at 1 uM preincubated for 5 mins followed by NADPH addition and measured after 60 mins by LC-MS/MS analysis
Assay type: ADME
Details: liver microsomes, time 65 min
RESULT TYPE: half-life at 1 µM (h)

> print(dat)
                               query.smiles  recorded.value
1  COc1ccc(-c2ccn(-c3ccc(NC(=O)Nc4ccc(F)cc4F)cc3)n2)cc1OC            2.14
2  COc1ccc(-c2ccn(-c3ccc(NC(=O)Nc4ccc(Cl)c(Cl)c4)cc3)n2)cc1OC             1.8

* * *

MIC listing for selected compounds.
Test system: Staphylococcus aureus
Assay: Antibacterial activity against methicillin/ceftriaxone/meropenem/vancomycin/teicoplanin resistant Staphylococcus aureus VRS 4 assessed as reduction in bacterial growth incubated for 18 to 24 hrs by broth dilution method
Assay type: functional
Details: time 18-24 hrs

COMPOUND	UNIT ANNOTATION	RELATION	MIC
CN[C@H](CC(C)C)C(=O)N[C@H]1C(=O)N[C@@H](CC(N)=O)C(=O)N[C@H]2C(=O)N[C@H]3C(=O)N[C@H](C(=O)N[C@H](C(=O)O)c4cc(O)cc(O)c4-c4cc3ccc4O)[C@H](O)c3ccc(c(Cl)c3)Oc3cc2cc(c3O[C@@H]2O[C@H](CO)[C@@H](O)[C@H](O)[C@H]2O[C@H]2C[C@](C)(N)[C@H](O)[C@H](C)O2)Oc2ccc(cc2Cl)[C@H]1O	µg/mL	>	64
C[C@@H](O)[C@H]1C(=O)N2C(C(=O)O)=C(S[C@@H]3CN[C@H](C(=O)N(C)C)C3)[C@H](C)[C@H]12	µg/mL	=	64
COc1ccc(-c2ccn(-c3ccc(NC(=O)Nc4ccc(Cl)c(Cl)c4)cc3)n2)cc1OC	µg/mL	=	0.25
C[C@H]1COc2c(N3CCN(C)CC3)c(F)cc3c(=O)c(C(=O)O)cn1c23 [LEVOFLOXACIN ANHYDROUS]	µg/mL	=	32

* * *

MIC listing for selected compounds.
Tested on: Staphylococcus aureus
Assay: Antibacterial activity against Staphylococcus aureus ATCC 29213 assessed as inhibition of bacterial growth measured for 18 to 24 hrs by broth dilution method
Type: functional
Conditions: time 18-24 hrs
RESULT TYPE: MIC

> print(dat)
                               query.smiles  result.type  recorded.value
1  COc1cc(-c2ccn(-c3ccc(NC(=O)Nc4ccc(F)cc4F)cc3)n2)cc(OC)c1OC          MIC      > 64 µg/mL
2  COc1ccc(-c2ccn(-c3ccc(NC(=O)Nc4cccc(Cl)c4Cl)cc3)n2)cc1OC          MIC      > 64 µg/mL
3  COc1ccc(-c2ccn(-c3ccc(NC(=O)Nc4ccc(C)c(Cl)c4)cc3)n2)cc1OC          MIC      > 64 µg/mL

* * *

Tested on: Staphylococcus aureus
Experiment: Antibacterial activity against Staphylococcus aureus ATCC 29213 assessed as inhibition of bacterial growth measured for 18 to 24 hrs by broth dilution method
Assay type: functional
Settings: time 18-24 hrs
RESULT TYPE: MIC

> print(dat)
                               query.smiles  recorded.value
1  Cc1ccc(-c2ccn(-c3ccc(NC(=O)Nc4ccc(F)cc4F)cc3)n2)cc1      > 64 µg/mL
2  O=C(Nc1ccc(-n2ccc(-c3ccc(Cl)cc3Cl)n2)cc1)Nc1ccc(Cl)c(Cl)c1      > 64 µg/mL
3  COc1ccc(-c2ccn(-c3ccc(NC(=O)Nc4cccc(F)c4)cc3)n2)cc1OC      > 64 µg/mL
4  COc1ccc(-c2ccn(-c3ccc(NC(=O)Nc4cccc(Cl)c4)cc3)n2)cc1OC         2 µg/mL
5  COc1ccc(-c2ccn(-c3ccc(NC(=O)Nc4cc(Cl)ccc4Cl)cc3)n2)cc1OC      > 64 µg/mL

* * *

Assay: Selectivity index, ratio of CC50 for cytotoxicity against African green monkey Vero cells assessed as reduction in cell viability to MIC for antibacterial activity against Mycobacterium tuberculosis H37Rv ATCC 27294 assessed as inhibition of bacterial growth
Type: toxicity, cell-based
Conditions: read-out: Selectivity Index
RESULT TYPE: selectivity ratio

> print(dat)
                               query.smiles  recorded.value
1  COc1ccc(-c2ccn(-c3ccc(NC(=O)Nc4ccc(F)cc4F)cc3)n2)cc1OC           > 200
2  COc1cc(-c2ccn(-c3ccc(NC(=O)NCc4ccccc4)cc3)n2)cc(OC)c1OC            < 10
3  COc1ccc(-c2ccn(-c3ccc(NC(=O)NCc4ccccc4)cc3)n2)cc1OC              20

* * *

CC50 at 72 h listing for selected compounds.
Assay: Cytotoxicity against African green monkey Vero cells assessed as reduction in cell viability incubated for 72 hrs by MTT assay
Format: toxicity, cell-based
Settings: chlorocebus sabaeus
RESULT TYPE: CC50 at 72 h (µg/mL)

> print(dat)
                               query.smiles  unit.annotation  relation  recorded.value
1  COc1ccc(-c2ccn(-c3ccc(NC(=O)NCc4ccccc4)cc3)n2)cc1OC            µg/mL         =              20
2  COc1ccc(-c2ccn(-c3ccc(NC(=O)Nc4ccc(Cl)c(Cl)c4)cc3)n2)cc1OC            µg/mL         =              10
3  COc1cc(-c2ccn(-c3ccc(NC(=O)NCc4ccccc4)cc3)n2)cc(OC)c1OC            µg/mL         <               5
4  COc1ccc(-c2ccn(-c3ccc(NC(=O)Nc4ccc(F)cc4F)cc3)n2)cc1OC            µg/mL         >             200

* * *

Test system: Mycobacterium tuberculosis
Assay: Antimycobacterial activity against Mycobacterium tuberculosis H37Rv ATCC 27294 assessed as inhibition of bacterial growth incubated for 18 to 24 hrs by broth dilution method
Format: functional
MIC listing for selected compounds.

COMPOUND	MIC
COc1ccc(-c2ccn(-c3ccc(NC(=O)Nc4cccc(Cl)c4Cl)cc3)n2)cc1OC	16 µg/mL
COc1ccc(NC(=S)Nc2ccc(-n3ccc(-c4ccc(OC)c(OC)c4)n3)cc2)cc1	8 µg/mL
CN[C@@H]1[C@H](O[C@H]2[C@H](O[C@H]3[C@H](O)[C@@H](O)[C@H](N=C(N)N)[C@@H](O)[C@@H]3N=C(N)N)O[C@@H](C)[C@]2(O)C=O)O[C@@H](CO)[C@H](O)[C@H]1O [STREPTOMYCIN]	1 µg/mL
COc1ccc(-c2ccn(-c3ccc(NC(=S)Nc4cccc5ccccc45)cc3)n2)cc1OC	16 µg/mL
COc1ccc(-c2ccn(-c3ccc(NC(=S)Nc4ccccc4)cc3)n2)cc1OC	8 µg/mL
C[C@H]1COc2c(N3CCN(C)CC3)c(F)cc3c(=O)c(C(=O)O)cn1c23 [LEVOFLOXACIN ANHYDROUS]	0.25 µg/mL
COc1ccc(-c2ccn(-c3ccc(NC(=O)Nc4cccc(C(F)(F)F)c4)cc3)n2)cc1OC	8 µg/mL
O=C(Nc1ccc(-n2ccc(-c3cccnc3)n2)cc1)Nc1ccc(F)cc1F	8 µg/mL
COc1ccc(-c2ccn(-c3ccc(NC(=O)NCc4ccccc4)cc3)n2)cc1OC	1 µg/mL
COc1ccc(-c2ccn(-c3ccc(NC(=S)Nc4ccc(F)cc4F)cc3)n2)cc1OC	16 µg/mL
COc1ccc(-c2ccn(-c3ccc(NC(=S)NCc4ccccc4)cc3)n2)cc1OC	8 µg/mL
COc1ccc(-c2ccn(-c3ccc(NC(=O)Nc4ccc(Cl)c(Cl)c4)cc3)n2)cc1OC	32 µg/mL
CC[C@@H](CO)NCCN[C@@H](CC)CO [ETHAMBUTOL]	2 µg/mL
COc1ccc(-c2ccn(-c3ccc(NC(=O)Nc4cc(Cl)ccc4Cl)cc3)n2)cc1OC	> 64 µg/mL
CO[C@H]1/C=C/O[C@@]2(C)Oc3c(C)c(O)c4c(O)c(c(/C=N/N5CCN(C)CC5)c(O)c4c3C2=O)NC(=O)/C(C)=C\C=C\[C@H](C)[C@H](O)[C@@H](C)[C@@H](O)[C@@H](C)[C@H](OC(C)=O)[C@@H]1C [RIFAMPIN]	0.06 µg/mL
O=C(Nc1ccc(-n2ccc(-c3ccc4ccccc4c3)n2)cc1)Nc1ccc(Cl)c(Cl)c1	64 µg/mL
O=C(NCc1ccccc1)Nc1ccc(-n2ccc(-c3ccc4ccccc4c3)n2)cc1	64 µg/mL

Origin of the recorded values: ChEMBL document CHEMBL5329155
